- experimental.system: UniProt:P00735
- experiment.description: biochemical
readout.label: Ki (nM)
Lab book: enter the figure in nM, no units written.

Recorded results for 6 compounds are shown here.
[[record]]
compound = "N=C(N)c1cccc(CC(NS(=O)(=O)c2ccc3ccccc3c2)C(=O)N2CCN(C(=O)Cc3cccs3)CC2)c1 (stereo not shown) [AMD 2-Naph drawing 11]"
experimental_system = "UniProt:P00735"
endpoint_value = 2500

[[record]]
compound = "CN(C)C(=O)N1CCN(C(=O)C(Cc2cccc(C(=N)N)c2)NS(=O)(=O)c2ccc3ccccc3c2)CC1 (stereo not shown)"
experimental_system = "UniProt:P00735"
endpoint_value = 13

[[record]]
compound = "CC(=O)N1CCN(C(=O)C(Cc2cccc(C(=N)N)c2)NS(=O)(=O)c2ccc3c(c2)C(=O)c2ccccc2C3=O)CC1 (stereo not shown)"
experimental_system = "UniProt:P00735"
endpoint_value = 14

[[record]]
compound = "Cc1c(C)c(S(=O)(=O)NC(Cc2cccc(C(=N)N)c2)C(=O)N2CCN(C(=O)N(C)C)CC2)c(C)c2c1OC(C)(C)CC2 (stereo not shown)"
experimental_system = "UniProt:P00735"
endpoint_value = 33

[[record]]
compound = "Cc1cc(C)c(S(=O)(=O)N2CCN(C(=O)C(Cc3cccc(C(=N)N)c3)NS(=O)(=O)c3ccc4ccccc4c3)CC2)c(C)c1 (stereo not shown)"
experimental_system = "UniProt:P00735"
endpoint_value = 75

[[record]]
compound = "CC(=O)N1CCN(C(=O)C(Cc2cccc(C(=N)N)c2)NS(=O)(=O)c2c(C(C)C)cc(C(C)C)cc2C(C)C)CC1 (stereo not shown)"
experimental_system = "UniProt:P00735"
endpoint_value = 98


Exercise: I would be grateful if you could share the reported Ki for NCc1cccc(CC(NS(=O)(=O)c2ccc3ccccc3c2)C(=O)N2CCN(c3ccccn3)CC2)c1 (stereo not shown) .
Solution: 24000
